Test system: rhesus H3 receptor
Test: GTPγS radioligand binding assay: inhibition of rhesus H3 constitutive functional activity in cell membranes (inverse agonism)
Type: biochemical, rhesus monkey (Macacca Mulatta)
Parameters: concentration or dose not given beside the values
Conditions: negative value = below basal level
Description: Rhesus H3 membranes were prepared from the Flp-In T-REx 293 Cell Line (Invitrogen) stably transfected with pcDNA5/FRT/TO (Invitrogen) containing the rhesus monkey (Macacca Mulatta) 445 amino acid H3 receptor. (Genbank #AY231164). Stably transfected cultures were amplified in tissue culture flasks by standard tissue culture methods and induced to express rhesus H3 by exposure to 500 ng/ml tetracycline (Cellgro) for 24 hours. […]
measurement-name: Inverse Agonism: % inhibition of Basal GTPγS binding in Rhesus H3 (%)

# compound, reported-measurement
measured = [
    ("CCCC1CCCN1C1CCN(c2ccc(N3CCC4(CCOCC4)C3=O)cc2)CC1 (centres unmarked)", "−33"),
    ("C[C@H]1CCCN1[C@H]1CCN(c2ccc(N3CCCC4(CCOCC4)C3=O)cc2F)C1", "−16"),
    ("C[C@@H]1CCCN1[C@H]1CCN(c2ccc(N3CCCC4(CCOCC4)C3=O)c(F)c2)C1", "−22"),
    ("C[C@H]1CCCN1[C@@H]1CCN(c2ccc(N3CCCC4(CCOCC4)C3=O)cc2)C1", "−10"),
    ("Cc1cc(N2CCC(N3CCC[C@@H]3C)CC2)ccc1N1CCC2(CCOCC2)C1=O", "−11"),
    ("C[C@@H]1CCCN1[C@@H]1CCN(c2ccc(N3CCCC4(CCOCC4)C3=O)cc2)C1", "−13"),
    ("C[C@H]1CCCN1[C@H]1CCN(c2ccc(N3CCCC4(CCOCC4)C3=O)c(F)c2)C1", "−20"),
    ("C[C@H]1CCCN1[C@H]1CCN(c2ccc(N3CCC4(CCOCC4)C3=O)c(C(F)(F)F)c2)C1", "−21"),
]
